Procedure summary: Steady-state pharmacokinetic parameters for Ofloxacin following multiple oral and intravenous (IV) doses of Ofloxacin to healthy 70 to 80 kg male volunteers.
Format: ADME, organism-based
Design: dose 200 mg, dose 400 mg, dose 300 mg, route oral, route iv
Conditions used: human, in vivo; dosed compound id 33, dosed compound name OFLOXACIN, gender male, regimen Multiple dose, tissue Serum; read-out: AUC(0 to 12) ss

# Molecule, AUC [ng·h/mL]
records = [
    ("CC1COc2c(N3CCN(C)CC3)c(F)cc3c(=O)c(C(=O)O)cn1c23 (stereo unspecified)", 41200),
]

###

Procedure summary: Steady-state pharmacokinetic parameters for Ofloxacin following multiple oral and intravenous (IV) doses of Ofloxacin to healthy 70 to 80 kg male volunteers.
Assay type: ADME, organism-based
Design: dose 200 mg, dose 400 mg, dose 300 mg, route oral, route iv
Conditions used: human, in vivo; dosed compound id 33, dosed compound name OFLOXACIN, gender male, regimen Multiple dose, tissue Serum; read-out: AUC(0 to inf) ss
Measured metric: AUC (ng·h/mL)

# Molecule, Measured metric, Value reported
rows = [
    ("CC1COc2c(N3CCN(C)CC3)c(F)cc3c(=O)c(C(=O)O)cn1c23 (stereo unspecified)", "AUC", 61000),
]

###

Procedure summary: Pharmcokinetic parameters for Ofloxacin following single oral dose administration of Ofloxacin to healthy male volunteers, body mass 70 to 80 kg.
Assay type: ADME, organism-based
Set-up: dose 300 mg, dose 200 mg, dose 400 mg, route oral
Conditions used: male, human, in vivo; dosed compound id 33, dosed compound name OFLOXACIN, regimen Single dose, route oral, tissue Plasma
Measured metric: Tmax

# Compound, Value reported
rows = [
    ("CC1COc2c(N3CCN(C)CC3)c(F)cc3c(=O)c(C(=O)O)cn1c23 (stereo unspecified)", "1 to 2 h"),
]

###

Procedure summary: Pharmcokinetic parameters for Ofloxacin following single oral dose administration of Ofloxacin to healthy male volunteers, body mass 70 to 80 kg.
Type: ADME, organism-based
Parameters: dose 300 mg, dose 200 mg, dose 400 mg, route oral
Conditions used: human, in vivo, po; dosed compound id 33, dosed compound name OFLOXACIN, gender male, regimen Single dose, tissue Serum

# Molecule, Cmax / ng/mL
data = [
    ("CC1COc2c(N3CCN(C)CC3)c(F)cc3c(=O)c(C(=O)O)cn1c23 (stereo unspecified)", 1500),
]

###

Procedure summary: Pharmcokinetic parameters for Ofloxacin following single oral dose administration of Ofloxacin to healthy male volunteers, body mass 70 to 80 kg.
Assay type: ADME, organism-based
Set-up: dose 300 mg, dose 200 mg, dose 400 mg, route oral
Conditions used: male, human, in vivo; dosed compound id 33, dosed compound name OFLOXACIN, regimen Single dose, route oral, tissue Plasma
Measured metric: bioavailability (%)

# Molecule, Measured metric, Measurement unit, Value reported
rows = [
    ("CC1COc2c(N3CCN(C)CC3)c(F)cc3c(=O)c(C(=O)O)cn1c23 (stereo unspecified)", "bioavailability", "%", 98),
]
